Below are IC50 measurements against Cytochrome P450 2C9 (Homo sapiens) drawn from the literature.

Known IC50 results, listed for orientation:
1) C[C@]1(c2cc(NC(=O)c3ccc(OCF)cn3)ccc2F)N=C(N)SCC12CC(F)(F)C2 | ≥ 20 µM
2) CC(C)(C)S(=O)(=O)Nc1cnc(C(=O)Nc2ccc(F)c([C@]3(C)C=CSC(N)=N3)c2)cn1 | > 20 µM
3) CC(C)NC(=O)c1csc(C(=O)Nc2cc3n(n2)CCN3c2ccc3c(c2)CCN(C)C3=O)c1 | > 20 µM

-- ask Provide measured IC50 on Cytochrome P450 2C9 (Homo sapiens) for C[C@H](c1ccc(F)cc1)n1cncc1C1CN(C)CC2CN(S(=O)(=O)c3cnc(Nc4ccccn4)s3)CCN21 (stereo partly shown) please.
-- reply 2.26 µM

---

Below are IC50 measurements against Cytochrome P450 2C9 (Homo sapiens) drawn from the literature.

-- ask Please look at this compound and report its IC50: COc1ccc(Nc2ccc(C(=O)c3c[nH]c4ncnc(NC5CCC(F)(F)CC5)c34)c(F)n2)cn1
-- reply > 10 µM

-- ask Please look at this compound and report its IC50: C[C@H]1SC(N)=N[C@](C)(c2cc(NC(=O)c3ccc(F)cn3)ccc2F)C12CC(F)(F)C2
-- reply ≥ 10 µM

-- ask Please look at this compound and report its IC50: C[C@H](c1ccc(C#N)cc1)n1cncc1CN1CCN(S(=O)(=O)c2cnc(Nc3ccc(C(F)(F)F)cn3)s2)CC1
-- reply 1.84 µM

-- ask Please look at this compound and report its IC50: C[C@H]1[C@H](C(F)(F)F)OC(N)=N[C@]1(C)c1cc(NC(=O)c2ccc(C#N)cn2)ccc1F
-- reply ≥ 20 µM

---

Below are IC50 measurements against Cytochrome P450 2C9 (Homo sapiens, UniProt P11712) drawn from the literature.

-- ask Provide measured IC50 on Cytochrome P450 2C9 (Homo sapiens, UniProt P11712) for Fc1nc(NC2CCC(F)(F)CC2)ccc1Cc1c[nH]c2ncnc(NC3CC3)c12 please.
-- reply 5 to 10 µM

-- ask Provide measured IC50 on Cytochrome P450 2C9 (Homo sapiens, UniProt P11712) for C[C@@H](c1ccccc1-c1ccc(F)cc1)n1cncc1C(=O)N1CCn2c(nnc2C2CC2)C1 please.
-- reply > 10 µM

-- ask Provide measured IC50 on Cytochrome P450 2C9 (Homo sapiens, UniProt P11712) for CC(=O)Nc1cc2n(n1)CCN2c1ccc2c(c1)CCC(=O)N2C please.
-- reply > 20 µM

-- ask Provide measured IC50 on Cytochrome P450 2C9 (Homo sapiens, UniProt P11712) for C[C@H]1SC(N)=N[C@](C)(c2cccc(NC(=O)c3ccc(OCF)cn3)c2)[C@H]1F please.
-- reply ≥ 10 µM

-- ask Provide measured IC50 on Cytochrome P450 2C9 (Homo sapiens, UniProt P11712) for C[C@H](c1ccc(F)cc1)n1cncc1CN1CCN(S(=O)(=O)c2cnc(NCC(F)CN)s2)CC1 (some centres unmarked) please.
-- reply 2.45 µM

-- ask Provide measured IC50 on Cytochrome P450 2C9 (Homo sapiens, UniProt P11712) for CC[C@@H](C#N)NC(=O)c1ccc(-c2nc(Nc3cnn(C(C)C(F)(F)F)c3)ncc2C)cc1 (some centres unmarked) please.
-- reply > 50 µM

-- ask Provide measured IC50 on Cytochrome P450 2C9 (Homo sapiens, UniProt P11712) for CC(O)c1ccc(CCOc2ccc(CC3SC(=O)NC3=O)cc2)nc1 (racemic) please.
-- reply 103 µM

-- ask Provide measured IC50 on Cytochrome P450 2C9 (Homo sapiens, UniProt P11712) for CO[C@H]1[C@@H](CF)OC(N)=N[C@]1(C)c1cc(NC(=O)c2ccc(F)cn2)ccc1F please.
-- reply ≥ 20 µM

---

Below are IC50 measurements against UniProt P11712 drawn from the literature.

Known IC50 results, listed for orientation:
1) C[C@@]1(c2cc(NC(=O)c3cc4n(n3)CCN4)ccc2F)C=CSC(N)=N1 | > 20 µM
2) CS(=O)(=O)c1ccc2c(c1)CN([C@H]1CO[C@H](c3cc(F)ccc3F)[C@@H](N)C1)C2 | > 25 µM
3) CCc1ccc(Nc2ccc(C(=O)c3c[nH]c4ncnc(NC5CC5)c34)c(F)n2)cn1 | > 10 µM

-- ask Please look at this compound and report its IC50: Cc1ccc2c(c1)N(C(=O)c1cc(Cl)c(O)c(Cl)c1)CCO2
-- reply 22 µM

-- ask Please look at this compound and report its IC50: CCN1CCN(c2ccc(Nc3cc(-n4c(Nc5c(Cl)c(OC)cc(OC)c5Cl)nc5ccccc54)ncn3)cc2)CC1
-- reply 44.8 µM

-- ask Please look at this compound and report its IC50: CC(C)C1CN(C(=O)/C=C/C(=O)O)c2cc(Cl)ccc2O1 (centres unmarked)
-- reply > 50 µM

-- ask Please look at this compound and report its IC50: CCN(CC)S(=O)(=O)c1ccc2c(c1)N(C(=O)c1cc(Cl)c(O)c(Cl)c1)CCO2
-- reply 17 µM

-- ask Please look at this compound and report its IC50: C[C@]1(c2cc(NC(=O)c3ccc(Cl)s3)ccc2F)N=C(N)O[C@@H]2CCCC(F)(F)[C@@H]21
-- reply 1 to 10 µM

---

Below are IC50 measurements against Cytochrome P450 2C9 (Homo sapiens) drawn from the literature.

1) COCCN1CCC(Nc2nc(N3CCC(F)(F)CC3)nc3cc(OCCCN4CCCC4)c(OC)cc23)CC1 | > 100 µM
2) Cc1ccc2c(c1)N(C(=O)/C=C/C(=O)O)CC(C(C)C)O2 (stereo not shown) | > 50 µM
3) CC1(C)SC(N2CCOc3cccnc32)=NC1=O | > 20 µM

Query compound follows.
-- ask Please look at this compound and report its IC50: COCCNC(=O)C1=C[C@@](C)(c2cc(NC(=O)c3ccc(C#N)cn3)ccc2F)N=C(N)S1
-- reply > 21 µM

---

Below are pIC50 measurements against UniProtKB P11712 drawn from the literature.
pIC50: −log10 of the molar value.

Known pIC50 results, listed for orientation:
1. Cc1nc(C)c(-c2csc(NC(=O)[C@@H]3CCC(=O)N3)n2)s1 | < 4.70
2. O=C(c1cc(Cl)c(O)c(Cl)c1)N1CCOc2ccc(C(F)(F)F)cc21 | 4.72
3. CO[C@H]1[C@@H](C)SC(N)=N[C@]1(C)c1cc(NC(=O)c2ccc(F)cn2)ccc1F | ≤ 4.70

Query compound follows.
-- ask Provide measured pIC50 on UniProtKB P11712 for CCc1ccc(Nc2ccc(Cc3c[nH]c4ncnc(OC)c34)c(F)n2)cn1 please.
-- reply < 5.00

---

Below are IC50 measurements against UniProtKB P11712 drawn from the literature.

Known IC50 results, listed for orientation:
1) CC(C)C(c1ccc2cc(OCC(F)(F)F)ccc2c1)n1ncnn1 (centres unmarked) | 27 µM
2) CNC(=O)c1cc(COc2nnc(Nc3ccc(Cl)cc3)c3ccccc23)ccn1 | > 20 µM
3) CNC(=O)c1cc(COc2nnc(Nc3ccc(F)cc3)c3ccoc23)ccn1 | > 20 µM
4) COc1ncnc2[nH]cc(Cc3ccc(Nc4ccc(C)nc4)nc3F)c12 | > 10 µM
5) O=C(c1cc(Cl)c(O)c(Cl)c1)N1CCOc2ccc([N+](=O)[O-])cc21 | 49 µM
6) COc1ccc(Nc2ccc(C(=O)c3c[nH]c4ncnc(N5CCOCC5)c34)c(F)n2)cn1 | > 10 µM
7) CCc1nc2c(C)cc(N3CCN(CC(=O)N4CC(O)C4)CC3)cn2c1N(C)c1nc(-c2ccc(F)cc2)c(C#N)s1 | 16.7 µM
8) O=C(O)CNC(=O)Nc1cnc2c(c1)OCCN2C(=O)Nc1ccccc1 | > 20 µM

-- ask Please look at this compound and report its IC50: CS(=O)(=O)CC(=O)Nc1c(-c2ccc(F)c(F)c2)nn2c1C(=O)N[C@@]1(CCc3cc(OCC(F)(F)F)ccc31)C2
-- reply > 20 µM

-- ask Please look at this compound and report its IC50: COc1cc2c(Nc3ccncc3)nc(-n3ccnc3)nc2cc1OCCCN1CCCC1
-- reply 65.5 µM

-- ask Please look at this compound and report its IC50: N#Cc1ccc(C(=O)Nc2ccc(F)c(C34COCC3COC(N)=N4)c2)nc1 (racemic)
-- reply > 20 µM

---

Below are pIC50 measurements against Cytochrome P450 2C9 (Homo sapiens, UniProt P11712) drawn from the literature.
pIC50: −log10 of the molar value.

-- ask Please look at this molecule and report its pIC50: COc1cc(N2CCc3nc(NC(=O)NCCC(=O)N4CCC[C@H]4C(=O)O)sc3C2)nc(OC)n1
-- reply < 4.70

-- ask Please look at this molecule and report its pIC50: COc1cncc(Nc2ccc(C(=O)c3c[nH]c4ncnc(NC(C)C)c34)c(F)n2)c1
-- reply > 5.30

-- ask Please look at this molecule and report its pIC50: OC(Cn1cnnn1)(c1ccc(F)cc1F)C(F)(F)c1ccc(OCc2cccc(F)c2)cn1 (stereo not shown)
-- reply 4.92

-- ask Please look at this molecule and report its pIC50: CN1CCN(c2ncc(S(=O)(=O)N3CCN(Cc4cncn4CCOc4ccc(F)cn4)CC3)s2)CC1
-- reply < 5.00
